Ref: the supplement of paper PMC10883282

The following molecules are listed with their measured relative viability values.
Tested on: SW982
Assay: relative viability vs DMSO control (72 h) (fraction); higher = more viable cells
Settings: 0.1235 µM
Form: value (number only, do not type unit).

The following molecules have reported results that may help.
* N#CC[C@H](C1CCCC1)n1cc(-c2ncnc3[nH]ccc23)cn1 | 0.915
* Nc1cc(C(F)(F)F)c(-c2cc(N3CCOCC3)nc(N3CCOCC3)n2)cn1 | 0.983
* COc1cc2c(Oc3ccc4[nH]c(C)cc4c3F)ncnc2cc1OCCCN1CCCC1 | 1.06
* CC(C)NC(=O)C1CCC(n2c(NC(=O)c3ccc(F)cc3)nc3ccc(CN4CCC(C(C)(C)O)CC4)cc32)CC1 (stereo unspecified) | 0.974
* C[C@@H](c1ccc2nccn2c1)n1nnc2ncc(-c3cnn(C)c3)nc21 | 1.03

Consider the additional molecule presented here.
Input Cc1ccc(NC(=O)c2ccc(CN3CCN(C)CC3)cc2)cc1Nc1nc(-c2cccnc2)cs1 . Output relative viability: 0.923

---

Test system: SYO-1
Assay: relative viability vs DMSO control (72 h) (fraction); higher = more viable cells
Settings: 1.111 µM
The following compounds are listed with their measured relative viability values.
Form: value (number only, do not type unit).

The following compounds have reported results that may help.
- O=C(Nc1cnn2ccc(N3CCC[C@@H]3c3cc(F)ccc3F)nc12)N1CC[C@H](O)C1: 0.885
- C=CC(=O)Nc1cccc(Oc2nc(Nc3ccc(N4CCN(C)CC4)cc3)nc3ccsc23)c1: 0.908
- CN1CCC(COc2cnc(-c3cccc(Cn4nc(-c5cccc(C#N)c5)ccc4=O)c3)nc2)CC1: 0.884
- CC(C)N1CCN(Cc2cnc(-c3cc(-c4cccc5[nH]ccc45)cc4[nH]ncc34)o2)CC1: 0.882

Consider the additional compound presented here.
Input CC[C@H](Nc1ncnc2[nH]cnc12)c1nc2cccc(F)c2c(=O)n1-c1ccccc1 . Output relative viability: 0.911

---

The following molecules are listed with their measured relative viability values.
Test system: MES-SA
Assay: relative viability vs DMSO control (72 h) (fraction); higher = more viable cells
Details: 3.333 µM
Form: value (number only, do not type unit).

The following molecules have reported results that may help.
- CC1(C)CNc2cc(NC(=O)c3cccnc3NCc3ccncc3)ccc21 [Motesanib]: 0.948
- CNC(=O)c1cc(Oc2ccc(NC(=O)Nc3ccc(Cl)c(C(F)(F)F)c3)c(F)c2)ccn1 [Regorafenib]: 0.735
- O=C(Nc1cnn2ccc(N3CCC[C@@H]3c3cc(F)ccc3F)nc12)N1CC[C@H](O)C1 [Larotrectinib]: 0.893
- Cc1cc(C)c(/C=C2\C(=O)Nc3ccccc32)[nH]1 [Semaxanib]: 0.867
- CC(C)NC(=O)C1CCC(n2c(NC(=O)c3ccc(F)cc3)nc3ccc(CN4CCC(C(C)(C)O)CC4)cc32)CC1 (configuration not stated) [Belizatinib]: 0.523
- COc1cc2c(Oc3ccc4[nH]c(C)cc4c3F)ncnc2cc1OCCCN1CCCC1 [Cediranib]: 0.619

Consider the additional molecule presented here.
Input CCN1CCN(Cc2ccc(Nc3ncc(F)c(-c4cc(F)c5nc(C)n(C(C)C)c5c4)n3)nc2)CC1 [Abemaciclib] . Output relative viability: 0.361

---

Test system: KHOS-240S
Test: relative viability vs DMSO control (72 h) (fraction); higher = more viable cells
Conditions: 0.00051 µM
recorded-metric: relative viability
Form: value (number only, do not type unit).

• COc1c(OCCCN2CCOCC2)ccc2c1N=C(NC(=O)c1cnc(N)nc1)N1CCN=C21 [Copanlisib] = 1.02
• CCc1cc2c(cc1N1CCC(N3CCOCC3)CC1)C(C)(C)c1[nH]c3cc(C#N)ccc3c1C2=O [Alectinib] = 1.09
• C=CC(=O)N1CCC([C@@H]2CCNc3c(C(N)=O)c(-c4ccc(Oc5ccccc5)cc4)nn32)CC1 [Zanubrutinib] = 0.946
• CC[C@H](Nc1ncnc2[nH]cnc12)c1nc2cccc(F)c2c(=O)n1-c1ccccc1 [Idelalisib] = 1.11
• CO[C@H]1C[C@@H]2CC[C@@H](C)[C@@](O)(O2)C(=O)C(=O)N2CCCC[C@H]2C(=O)O[C@H]([C@H](C)C[C@@H]2CC[C@@H](OP(C)(C)=O)[C@H](OC)C2)CC(=O)[C@H](C)/C=C(\C)[C@@H](O)[C@@H](OC)C(=O)[C@H](C)C[C@H](C)/C=C/C=C/C=C/1C [Ridaforolimus] = 1.03
• C[C@@H](c1ccc2nccn2c1)n1nnc2ncc(-c3cnn(C)c3)nc21 [Volitinib] = 1.04
• CC1(C)CNc2cc(NC(=O)c3cccnc3NCc3ccncc3)ccc21 [Motesanib] = 0.982

Consider the additional compound presented here.
Input O=C(Nc1cnn2ccc(N3CCC[C@@H]3c3cc(F)ccc3F)nc12)N1CC[C@H](O)C1 [Larotrectinib] . Output relative viability: 1.07
